# target: T1, His-tagged human HVEM (human, UniProt Q92956 39-202, limits assumed)
# T1 construct: Analyte of the BLI assay, 200 nM in PBS; not shown: His tag
# T1 sequence (looked up): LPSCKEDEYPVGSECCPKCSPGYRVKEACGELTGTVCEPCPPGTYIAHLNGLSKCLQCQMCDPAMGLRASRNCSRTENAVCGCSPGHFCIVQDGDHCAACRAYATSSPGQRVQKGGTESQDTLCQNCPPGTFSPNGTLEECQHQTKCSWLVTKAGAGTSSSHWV
# assay.explanation: BLI OctetRed96, mAb captured, 200 nM His-HVEM
Below, each entry is listed with its recorded koff.
Express the result in s⁻¹ but write the number alone.

The cases that follow already have their koff on record.
Look up koff: Ab_051 (H5S19-4A6A) (antibody, V domains shown, also called Ab_51) VH: QVQLKESGPGLVAPSQSLSITCTVSGFSLTGYGVNWVRQPPGKGLEWLGMIWGDGNTDYNSALKSRLSISKDNSKSQVFLKMNSLQTDDTARYYCARSYGSYWGQGTLVTVSA VL: QIVLTQSPAIMSASPGEKVTMTCSASSSVSYMYWYQQKPGSSPRLLIYDTSNLASGVPVRFSGSGSGTSYSLTISRMEAEDAATYYCQQWSSYPFTFGSGTKLEIK
0.0143

Similarly, Ab_054 (H5S19-21A17C) (antibody, V domains shown, also called Ab_54) VH: QVQLKESGPGLVAPSQSLSITCTVSGFSLTSYGVHWVRQPPGKGLEWLGVIWAGGITNYNSALMSRLSISTDNSRSQVFLKMNSLQTDDTAMYYCARDWERDSSGPFPYWGQGTLVTVSA VL: DIQMTQTTSSLSASLGDRVTISCSASQGISNYLNWYQQKPDGTVKLLIYYTSSLHSGVPSRFSGSGSGTDYSLTISNLEPEDIATYFCQQYSKLPWTFGGGTKLEIK ?
0.00291

Please find the next binder below.
Look up koff: Ab_083 (H5S20-49A39A) (antibody, V domains shown, also called Ab_153; Ab_83) VH: EVQLQQSGAELVKPGASVKLSCTASGFNIKDTYVHWVKERPEQGLEWIGRIDPANDNTKYAPKFQVKATITADTSSNTAYLQLSSLTSEDNAVYYCAPYGNYPAWFAYWGQGTLVTVSA VL: DVLMTQTPLSLPVSLGDQVSISCRSSQNIVHSNGNTYLEWYLQKPGQSPKLLIYKVSNRFSGVPDRFSGSGSGTDFTLKISRVEAEDLGVYYCFQGSHVPLTFGAGTKLELK
0.0167
